target: Nociceptin receptor (Homo sapiens, UniProt P41146); test: Displacement of [3H]nociceptin from human ORL1-Galpha fusion receptor in COS7 cells
Sequence (P41146 whole entry, the tested form may be a part): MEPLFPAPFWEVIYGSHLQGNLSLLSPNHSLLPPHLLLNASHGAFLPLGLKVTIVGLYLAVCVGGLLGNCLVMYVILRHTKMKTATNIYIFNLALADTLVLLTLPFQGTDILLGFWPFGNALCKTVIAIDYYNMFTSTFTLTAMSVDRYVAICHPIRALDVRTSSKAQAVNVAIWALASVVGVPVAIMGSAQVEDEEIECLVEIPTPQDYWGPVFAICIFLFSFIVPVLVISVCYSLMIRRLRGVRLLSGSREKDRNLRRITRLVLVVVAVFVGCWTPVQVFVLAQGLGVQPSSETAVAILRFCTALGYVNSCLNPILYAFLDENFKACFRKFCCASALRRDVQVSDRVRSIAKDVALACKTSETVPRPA
Parameter IC50: see the listing below.
A number alone suffices; assume µM.

Reference set, count: 2
given smiles	measurement unit	IC50
CC[C@H](C)[C@H](NC(=O)[C@H](CCCNC(=N)N)NC(=O)[C@H](Cc1ccc(O)cc1)NC(=O)[C@H](Cc1ccc(O)cc1)NC(=O)[C@H](CCCNC(=N)N)NC(=O)C(C)(C)C)C(=O)N[C@@H](CCCCN)C(N)=O	µM	0.0149
CCC(CC)C(=O)N[C@@H](CCCN=C(N)N)C(=O)N[C@@H](Cc1ccc(O)cc1)C(=O)N[C@@H](Cc1ccc(O)cc1)C(=O)N[C@@H](CCCN=C(N)N)C(=O)N[C@H](C(=O)N[C@@H](CCCCN)C(N)=O)[C@@H](C)CC	µM	0.0926

Now for another entry.
IN: Quick one: give measured IC50 for CCCC(=O)N[C@@H](CCCNC(=N)N)C(=O)N[C@@H](Cc1ccc(O)cc1)C(=O)N[C@@H](Cc1ccc(O)cc1)C(=O)N[C@@H](CCCNC(=N)N)C(=O)N[C@H](C(=O)N[C@@H](CCCCN)C(N)=O)[C@@H](C)CC
OUT: 0.00186

// provenance: ChEMBL document CHEMBL1142261
